# target desc: ATP-dependent DNA helicase Q1 (Homo sapiens)
# protocol details: qHTS Validation Assay for Inhibitors of RecQ-Like Dna Helicase 1 (RECQ1) (AID 2353)
# recorded conditions: recombinant RECQ1 helicase DNA unwinding assay; series mostly up to 25.6 µM
Activity calls are given as the source filed them. Calls follow the shape of the dose curve; as a rule, active = well fitted inhibition curve with a large enough effect; inconclusive = small, poorly fitted or top-dose-only effect; inactive = flat fitted curve, though single readings scatter.
Write down the outcome that applies. Available outcomes: active, inactive

Q: Status in this test for Nc1ccn([C@@H]2O[C@H](CO)[C@@H](O)[C@@H]2O)c(=O)n1 ?
A: inactive

Q: Hi, do you know how S=C(S)OC1CC2CC1C1CCCC21 (stereo unspecified) came out in this test?
A: inactive

Q: Hello, I am checking results. What call was entered for N#C/C(=C\c1ccc(O)c(O)c1)C(=O)NCc1ccccc1 ?
A: inactive

Q: How did this test come out for C=C/C(C)=C/[C@@]1(C)SC(=O)C(C)=C1O ?
A: active

Q: I would be grateful if you could indicate the recorded call for CC(C)(C)c1ccc(S(=O)(=O)/C=C/C#N)cc1 .
A: inactive

Q: What is the recorded call for this compound in the test? CN1CCc2cc(NC(=O)Nc3cccnc3)ccc21
A: inactive

Q: Outcome? Oc1ccccc1O
A: inactive

Q: Recorded test outcome, item Ic1ccc(N2CCN(Cc3c[nH]c4ncccc34)CC2)cc1
A: inactive

Q: // return assay outcome for Cn1c(=O)c2[nH]c(-c3ccccc3)nc2n(C)c1=O
A: inactive

Q: Could you check what this test reported for N[C@@H](CC(=O)O)C(=O)O ?
A: inactive

Q: Short answer needed: outcome of this test for NC(CCCP(=O)(O)O)C(=O)O (stereo unspecified) ?
A: inactive

----------
# System: Tov112D
# protocol details: Primary qHTS to identify gynecologic anti-cancer compounds using libraries of approved drugs and bioactive compounds (AID 1345084); also: nearly all actives have a fitted effect of over 55% in size
# recorded conditions: Gynecologic cancer cell panel viability, ATPlite luminescence, 48 h; series mostly up to 57.5 µM
Inconclusive results are not listed. Calls of active or inactive are those of the source. The call rests on the fitted dose curve; in most records, active means well fitted cell-killing curve with a large enough effect; inconclusive means small, poorly fitted or top-dose-only effect, or effect the other way; inactive means flat fitted curve, though single readings scatter.
Valid outcomes are listed here; reply with one: active, inactive

Q: Could you kindly confirm the outcome this assay logged for CCCOC(=O)c1ccc(O)cc1 ?
A: inactive

Q: What is the recorded call for this molecule in the test? COC(=O)C1=C(C)NC(C)=C(C(=O)OCC(C)C)C1c1ccccc1[N+](=O)[O-] (stereo not given)
A: inactive

Q: Which outcome was entered for the molecule CCCCCCCCCCCCOCCO in this test?
A: inactive

Q: Test call, this molecule: Cc1onc(-c2c(F)cccc2Cl)c1C(=O)N[C@@H]1C(=O)N2[C@@H]1SC(C)(C)[C@@H]2C(=O)O
A: inactive

Q: Write down the call the test reported for this molecule. Item: CCC1C(=O)OCC1Cc1cncn1C (stereo not given)
A: inactive

Q: I would be grateful if you could indicate the recorded call for Cc1ccc(C(=O)c2ccc(CC(=O)O)n2C)cc1 .
A: inactive

Q: State the result this test recorded for CCCCCCCCCCCC(=O)[O][Sn]([CH2]CCC)([CH2]CCC)[O]C(=O)CCCCCCCCCCC .
A: inactive

Q: Call for entry CN(C)CCn1nnnc1SCC1=C(C(=O)O)N2C(=O)[C@@H](NC(=O)Cc3csc(N)n3)[C@H]2SC1 :
A: inactive

Q: How was S=c1[nH]c2ccccc2s1 classified in this test?
A: inactive

Q: Given Cc1ccc2c(n1)Oc1ccc(C(C)C(=O)OCC(=O)N(C)C)cc1C2 (stereo not given) , state the outcome it received in this test.
A: inactive

Q: Dear colleague, could you share the recorded outcome for COC(=O)Nc1nc2ccc(C(=O)C3CC3)cc2[nH]1 when you have a moment?
A: active

Q: Assay result, entry CC1(C)S[C@@H]2[C@H](NC(=O)[C@H](N)c3ccccc3)C(=O)N2[C@H]1C(=O)O — outcome?
A: inactive

Q: In this assay, the call recorded for CCCCCCCCCCCCCCCCCC(=O)O was what?
A: inactive

Q: Any idea what this test logged for CO[C@@]1(NC(=O)Cc2cccs2)C(=O)N2C(C(=O)O)=C(COC(N)=O)CS[C@@H]21 ?
A: inactive

Q: Look up the recorded call for O=[N+]([O-])c1ccc(CNc2nc(NCc3cccc(C(F)(F)F)c3)nc3nc[nH]c23)cc1 in this test.
A: inactive

Q: Identify the outcome logged in this assay for the molecule shown: COc1ccc(/C=C/C(=O)Nc2ccccc2C(=O)O)cc1OC
A: inactive

Q: Please indicate how the test categorized COC(=O)c1nc(Cl)c(Cl)nc1N .
A: active

Q: Can you look up the reported call for Fc1ccc2[nH]c(CN3CCN(c4ccccn4)CC3)cc2c1 for me?
A: inactive

Q: Lab log entry: O=C(O)Cc1ccc(-c2ccccc2)cc1 — outcome as called in the assay?
A: inactive

Q: # fetch the recorded call for COc1cc(CNC(=O)CCCC/C=C/C(C)C)ccc1O here
A: inactive

Q: Write down the call the test reported for this molecule. Item: c1ccc2sc(SN3CCOCC3)nc2c1
A: inactive

Q: For O=C(/C=C/c1ccccc1)NCCO , which call appears in the assay record?
A: inactive

Q: Lab log entry: COc1cc(NC(C)CCCN)c2ncccc2c1 (stereo not given) — outcome as called in the assay?
A: inactive

Q: Dear all, I need the recorded test outcome for CCCCCCCCCCCCCCCC(=O)OC(C)C , thank you.
A: inactive

Q: For CCOC(=O)c1ccccc1O , which call appears in the assay record?
A: inactive

Q: Would you mind telling me which call this test gave O=Cc1ccc(O)c(O)c1O ?
A: inactive

Q: I'd appreciate the recorded outcome for Cc1c(C(=O)O)c(O)cc2c1C(=O)c1c(O)c([C@@H]3O[C@H](CO)[C@@H](O)[C@H](O)[C@H]3O)c(O)c(O)c1C2=O from this test.
A: inactive

Q: Could you please tell me the result logged for Cc1cc(O)c2ccccc2c1O in this assay?
A: inactive

Q: Per the records of this test, what outcome belongs to CCNC(=O)[C@H]1O[C@@H](n2cnc3c(N)nc(NCCc4ccc(CCC(=O)O)cc4)nc32)[C@H](O)[C@@H]1O ?
A: inactive

Q: Could you kindly confirm the outcome this assay logged for CC1(C)S[C@@H]2[C@H](NC(=O)[C@H](NC(=O)N3CCN(S(C)(=O)=O)C3=O)c3ccccc3)C(=O)N2[C@H]1C(=O)O ?
A: inactive

Q: Give the logged outcome of this assay for the following molecule: O=C(OCc1ccccc1)c1ccccc1
A: inactive

Q: Please indicate how the test categorized COc1cccc2c1C(=O)c1c(O)c3c(c(O)c1C2=O)C[C@@](O)(C(=O)CO)C[C@@H]3O[C@H]1C[C@H](N)[C@H](O[C@@H]2CCCCO2)[C@H](C)O1 .
A: active

Q: Name the outcome recorded for CCCCCCOc1ccccc1C(N)=O in the assay.
A: inactive

Q: Which outcome was entered for the molecule CN1[C@@H]2CC[C@H]1CC(OC(c1ccccc1)c1ccccc1)C2 (stereo not given in full) in this test?
A: inactive

Q: What did the test return for [O-][n+]1ccccc1SSc1cccc[n+]1[O-] ?
A: active

Q: # lookup: test call for c1ccc2sc(SSc3nc4ccccc4s3)nc2c1
A: inactive

Q: Hey, what did the test say about C[C@H](O)[C@H](O)[C@H]1CNc2nc(N)[nH]c(=O)c2N1 ?
A: inactive

Q: Recorded test outcome, item NCCO
A: inactive

Q: What outcome does the record of this test show for CC(C)OC(=O)c1cc(C(=O)OC(C)C)cc([N+](=O)[O-])c1 ?
A: inactive

Q: Can you look up the reported call for CCCC(=O)OC[C@@H](OC(=O)CCC)[C@@H](OC(=O)CCC)[C@H](Cn1c2nc(=O)[nH]c(=O)c-2nc2cc(C)c(C)cc21)OC(=O)CCC for me?
A: inactive

Q: # outcome recorded in this test, key = Nc1ccc(O)c(C(=O)O)c1
A: inactive

Q: Outcome logged for Cc1ccc(O)c(-n2nc3ccccc3n2)c1 in this assay:
A: inactive

Q: Call for entry CN(C)[C@@H]1C(=O)C(C(=O)NCN2CCCC2)=C(O)[C@@]2(O)C(=O)C3=C(O)c4c(O)cccc4[C@@](C)(O)C3C[C@@H]12 (stereo not given in full) :
A: inactive

Q: For CS(=O)(=O)c1ccc(-n2nc(C(F)(F)F)cc2-c2ccc(F)cc2)cc1 , which call appears in the assay record?
A: inactive

Q: Hi, do you know how c1ccc(CCNc2nc(-c3ccccc3)cs2)cc1 came out in this test?
A: inactive

----------
# target desc: Chromobox protein homolog 1 (Homo sapiens)
# protocol details: qHTS Validation Assay for Inhibitors of HP1-beta Chromodomain Interactions with Methylated Histone Tails (AID 488953); also: nearly all actives have a fitted effect of over 50% in size
# recorded conditions: HP1-beta chromodomain / methylated histone peptide binding assay; series mostly up to 114 µM
Results filed as inconclusive are left out. Active and inactive are the calls of the source. The call rests on the fitted dose curve; in most records, active means well fitted inhibition curve with a large enough effect; inconclusive means small, poorly fitted or top-dose-only effect; inactive means no such curve, though single readings can be large or run the other way.
Just give me one of these, please: active, inactive

Q: Field: outcome | Entry: OCC1O[C@H](O)C(Cl)C(O)C1O (some centres not stated)
A: inactive

Q: Please let me know the test result on file for c1cnc2c(c1)ccc1cccnc12 .
A: inactive

Q: Just curious, what result did Cc1cc(NC2CCCCC2)nc(-n2nc(C)cc2C)n1 get here?
A: inactive

Q: Please state the recorded outcome for this molecule: CC(C)(C)c1ccc(S(=O)(=O)/C=C/C#N)cc1
A: active

Q: Test call for this molecule, please: O=C(O)c1cc(=O)c2c(Cl)cc(Cl)cc2[nH]1
A: inactive

Q: How was O=C1NC(O)=NC1(c1ccccc1)c1ccccc1 classified in this test?
A: inactive

Q: Dear all, I need the recorded test outcome for O=c1[nH]c2cc([N+](=O)[O-])c([N+](=O)[O-])cc2[nH]c1=O , thank you.
A: inactive

Q: Status in this test for Nc1ncnc2c1c(I)cn2[C@@H]1C[C@H](N)[C@@H](O)[C@H]1O ?
A: inactive

Q: For Nc1ncnc2c1ncn2[C@@H]1O[C@H](COP(=O)(O)OP(=O)(O)OP(=O)(O)OP(=O)(O)OC[C@@H]2O[C@H](n3cnc4c(N)ncnc43)[C@@H](O)[C@H]2O)[C@@H](O)[C@H]1O , which call appears in the assay record?
A: inactive

Q: Outcome? COc1ccc2c(c1)CCC1C2CC[C@@]2(C)C1CC[C@@H]2NCCCCCCN1C(=O)CCC1=O (some centres not stated)
A: inactive

Q: Hi team, can someone confirm the assay call for CN1CC(=O)N/C1=N/C(=O)Nc1cccc(Cl)c1 ?
A: inactive

Q: Per the records of this test, what outcome belongs to CN(C)c1nc2c(Br)c(Br)c(Br)c(Br)c2[nH]1 ?
A: inactive

Q: Can you look up the reported call for CSc1ccccc1N1CCN(CCCCCC(=O)NC2CCCc3ccccc32)CC1 (configuration not stated) for me?
A: active

Q: So what was the verdict on Nc1nc(Cl)nc2c1ncn2[C@@H]1O[C@H](COP(=O)(O)OP(=O)(O)OP(=O)(O)O)[C@@H](O)[C@H]1O in this test?
A: inactive

Q: Which outcome was assigned to COc1cc(C(O)CO)ccc1OS(=O)(=O)O (configuration not stated) in this test?
A: inactive

Q: Please indicate how the test categorized NC(=S)NCCC[C@H](N)C(=O)O .
A: active

Q: Dear colleague, could you share the recorded outcome for O=C1O/C(=C/Br)CCC1c1cccc2ccccc12 (configuration not stated) when you have a moment?
A: inactive

Q: Hi, sorry to bother you, what did the test record for CC(COc1ccc(/C=C/c2ccccc2)cc1)[N+](C)(C)C (configuration not stated) ?
A: inactive

Q: Assay outcome for Cc1ccc(C(=O)O[C@H](C(=O)O)[C@@H](OC(=O)c2ccc(C)cc2)C(=O)O)cc1 (tested in a mixture with another compound) : what was it?
A: inactive

Q: In this assay, the call recorded for O=C(O)CCCC[C@@H]1CCSS1 was what?
A: inactive

Q: Outcome logged for Ic1ccc(N2CCN(Cc3c[nH]c4ncccc34)CC2)cc1 in this assay:
A: active

Q: What did this assay record as the result for COC1=C(OC)C(=O)c2ccccc2C1=O ?
A: inactive
